assayed system: hOAT1 (Homo sapiens, UniProt Q4U2R8)
Sequence (Q4U2R8 whole entry): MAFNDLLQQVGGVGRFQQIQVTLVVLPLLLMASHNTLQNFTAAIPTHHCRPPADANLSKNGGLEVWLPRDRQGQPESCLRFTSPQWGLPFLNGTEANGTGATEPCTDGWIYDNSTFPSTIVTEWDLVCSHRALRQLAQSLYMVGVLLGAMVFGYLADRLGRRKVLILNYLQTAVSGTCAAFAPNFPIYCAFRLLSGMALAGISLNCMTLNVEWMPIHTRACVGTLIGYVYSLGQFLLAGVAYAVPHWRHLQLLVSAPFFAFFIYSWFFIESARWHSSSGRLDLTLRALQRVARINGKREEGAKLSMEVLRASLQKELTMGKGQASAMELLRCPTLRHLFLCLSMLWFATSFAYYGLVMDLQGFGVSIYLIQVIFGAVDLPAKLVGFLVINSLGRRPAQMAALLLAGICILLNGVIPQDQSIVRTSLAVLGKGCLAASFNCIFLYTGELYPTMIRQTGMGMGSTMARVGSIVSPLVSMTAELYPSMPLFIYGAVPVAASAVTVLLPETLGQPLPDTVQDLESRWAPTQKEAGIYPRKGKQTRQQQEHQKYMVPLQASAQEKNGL
protocol notes: Substrates uptake assay, MDCKII-OAT1 cells (14C-PAH)
experimental setup: MDCKII-OAT1; 14C-PAH 5 µM; 2 min
reported metric: IC50

[Q] Endpoint output: IC50 of CC(C)(O)[C@@H]1CC[C@@](C)([C@H]2CC[C@]3(C)[C@@H]2[C@H](O)C[C@@H]2[C@@]4(C)CC[C@H](O)C(C)(C)[C@@H]4CC[C@]23C)O1 [PDQ] . Value?
[A] > 30 µM

====

Protein target, amino acids: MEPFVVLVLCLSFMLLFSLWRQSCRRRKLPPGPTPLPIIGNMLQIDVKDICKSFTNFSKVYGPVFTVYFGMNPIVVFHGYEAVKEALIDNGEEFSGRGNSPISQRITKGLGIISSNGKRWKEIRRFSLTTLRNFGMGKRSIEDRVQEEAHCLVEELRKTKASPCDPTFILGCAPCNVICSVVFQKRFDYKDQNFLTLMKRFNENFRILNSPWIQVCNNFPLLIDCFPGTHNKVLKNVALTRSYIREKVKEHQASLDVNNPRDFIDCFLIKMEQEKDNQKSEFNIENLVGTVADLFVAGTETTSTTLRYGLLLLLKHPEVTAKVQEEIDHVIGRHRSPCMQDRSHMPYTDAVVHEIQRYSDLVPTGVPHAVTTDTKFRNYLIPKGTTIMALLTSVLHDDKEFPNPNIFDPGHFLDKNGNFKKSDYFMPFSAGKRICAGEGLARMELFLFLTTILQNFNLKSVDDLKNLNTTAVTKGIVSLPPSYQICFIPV
reported metric: IC50 (µM)
Report the value in µM with no unit label.

[Q] Endpoint output: IC50 of CC(C)(O)[C@@H]1CC[C@@](C)([C@H]2CC[C@]3(C)[C@@H]2[C@H](O)C[C@@H]2[C@@]4(C)CC[C@H](O)C(C)(C)[C@@H]4CC[C@]23C)O1 . Value?
[A] 16.4

====

assayed system: CYP3A4 (Homo sapiens, UniProt P08684)
Construct: tissue Corning 452117; host or cells: human liver microsomes
Sequence (P08684 whole entry): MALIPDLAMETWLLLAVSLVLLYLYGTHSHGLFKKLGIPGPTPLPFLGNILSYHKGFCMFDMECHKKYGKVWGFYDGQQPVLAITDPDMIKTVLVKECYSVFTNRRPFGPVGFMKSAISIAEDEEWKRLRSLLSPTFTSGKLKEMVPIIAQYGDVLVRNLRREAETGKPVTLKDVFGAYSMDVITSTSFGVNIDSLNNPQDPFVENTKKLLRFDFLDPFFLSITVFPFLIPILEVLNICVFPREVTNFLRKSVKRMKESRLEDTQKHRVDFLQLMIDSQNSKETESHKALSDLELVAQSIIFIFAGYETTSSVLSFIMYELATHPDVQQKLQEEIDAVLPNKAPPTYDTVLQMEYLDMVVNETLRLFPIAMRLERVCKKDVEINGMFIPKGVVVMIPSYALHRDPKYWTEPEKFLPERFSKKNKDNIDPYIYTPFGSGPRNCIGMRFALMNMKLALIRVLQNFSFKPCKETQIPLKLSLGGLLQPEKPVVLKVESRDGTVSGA
protocol notes: CYP450 inhibition assay in human liver microsomes, CYP3A4 (midazolam and testosterone)
Type: in vitro ADME
experimental setup: HLM; midazolam and testosterone as substrates; read-out: IC50 on CYP3A4 (range over both substrates)
reported metric: IC50

[Q] Endpoint output: IC50 of CC(C)(O)[C@@H]1CC[C@@](C)([C@H]2CC[C@]3(C)[C@@H]2[C@H](O)C[C@@H]2[C@@]4(C)CC[C@H](O)C(C)(C)[C@@H]4CC[C@]23C)O1 . Value?
[A] 2.02 to 6.79 µM

====

assayed system: hMDR1(P-gp) (Homo sapiens, UniProt P08183)
Sequence (P08183 whole entry): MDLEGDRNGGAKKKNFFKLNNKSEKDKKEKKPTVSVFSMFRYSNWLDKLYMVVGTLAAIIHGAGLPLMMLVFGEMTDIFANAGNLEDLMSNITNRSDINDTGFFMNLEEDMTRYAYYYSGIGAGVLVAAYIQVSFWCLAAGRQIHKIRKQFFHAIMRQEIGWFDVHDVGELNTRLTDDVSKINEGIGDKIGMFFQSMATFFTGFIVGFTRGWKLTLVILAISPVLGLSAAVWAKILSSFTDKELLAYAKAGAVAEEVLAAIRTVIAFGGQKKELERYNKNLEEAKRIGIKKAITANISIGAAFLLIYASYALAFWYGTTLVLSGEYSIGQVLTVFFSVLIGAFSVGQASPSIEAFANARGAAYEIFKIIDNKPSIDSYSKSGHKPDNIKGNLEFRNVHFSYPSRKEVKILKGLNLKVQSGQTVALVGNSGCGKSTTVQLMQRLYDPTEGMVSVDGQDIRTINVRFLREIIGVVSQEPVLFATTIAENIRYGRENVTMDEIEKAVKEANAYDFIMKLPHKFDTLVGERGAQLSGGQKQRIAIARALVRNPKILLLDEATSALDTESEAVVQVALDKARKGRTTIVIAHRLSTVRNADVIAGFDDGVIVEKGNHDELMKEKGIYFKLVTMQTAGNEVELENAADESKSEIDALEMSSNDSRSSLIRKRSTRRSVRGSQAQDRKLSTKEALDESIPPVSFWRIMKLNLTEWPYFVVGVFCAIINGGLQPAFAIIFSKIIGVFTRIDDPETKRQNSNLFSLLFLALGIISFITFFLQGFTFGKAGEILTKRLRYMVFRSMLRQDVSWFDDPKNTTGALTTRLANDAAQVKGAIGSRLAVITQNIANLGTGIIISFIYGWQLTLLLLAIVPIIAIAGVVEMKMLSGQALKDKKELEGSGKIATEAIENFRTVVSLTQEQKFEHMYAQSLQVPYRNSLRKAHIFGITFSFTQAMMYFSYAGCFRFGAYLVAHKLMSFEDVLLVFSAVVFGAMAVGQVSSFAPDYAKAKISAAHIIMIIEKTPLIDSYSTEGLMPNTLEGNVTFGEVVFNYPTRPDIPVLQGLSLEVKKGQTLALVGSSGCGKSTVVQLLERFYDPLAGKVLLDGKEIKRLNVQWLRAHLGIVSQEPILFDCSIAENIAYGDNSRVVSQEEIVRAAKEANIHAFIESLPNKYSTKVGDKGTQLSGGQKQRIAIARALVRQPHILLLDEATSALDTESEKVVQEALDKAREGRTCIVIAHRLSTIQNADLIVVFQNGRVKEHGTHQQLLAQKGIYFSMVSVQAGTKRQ
reported metric: IC50 (nM)
Report the value in nM with no unit label.

[Q] Endpoint output: IC50 of CC(C)(O)[C@@H]1CC[C@@](C)([C@H]2CC[C@]3(C)[C@@H]2[C@H](O)C[C@@H]2[C@@]4(C)CC[C@H](O)C(C)(C)[C@@H]4CC[C@]23C)O1 [PDQ] . Value?
[A] 410

====

assayed system: CYP3A4 (Homo sapiens, UniProt P08684)
Construct: tissue Corning 452117; host or cells: human liver microsomes
protocol notes: CYP450 inhibition assay in human liver microsomes, CYP3A4 (midazolam and testosterone)
Format: in vitro ADME
experimental setup: HLM 0.1 mg/mL; probe testosterone 40 µM; 10 min; read-out: IC50 on CYP3A4 (Testosterone)
reported metric: pIC50
Bear in mind: pIC50 is minus log10 of a mol/L concentration; give just that figure.

[Q] Query for CYP3A4 (Homo sapiens, UniProt P08684): what pIC50 does the record show for CC(C)(O)[C@@H]1CC[C@@](C)([C@H]2CC[C@]3(C)[C@@H]2[C@H](O)C[C@@H]2[C@@]4(C)CC[C@H](O)C(C)(C)[C@@H]4CC[C@]23C)O1 ?
[A] 5.17
